B1: MBP-FOLDON-ATG9A (692–839) [bacteriophage T4 | human] / TSF-ATG13^HORMA:GST-ATG101 complex, wild type [human] (parent complex)
chain 1: QLQSLVLSEYASTEMSLHALYMHQLHKQQAQAEPERHVWHRRESDESGESAPDEGGEGARAPQSIPRSASYPCAAPRPGAPETTALHGGFQRRYGGITDPGTVPRVPSHFSRLPLGGWAEDGQSASRHPEPVPEEGSEDELPPQVHKV
chain 2: METDLNSQDRKDLDKFIKFFALKTVQVIVQARLGEKICTRSSSSPTGSDWFNLAIKDIPEVTHEAKKALAGQLPAVGRSMCVEISLKTSEGDSMELEIWCLEMNEKCDKEIKVSYTVYNRLSLLLKSLLAITRVTPAYRLSRKQGHEYVILYRIYFGEVQLSGLGEGFQTVRVGTVGTPVGTITLSCAYRINLAFMS
chain 3: MNCRSEVLEVSVEGRQVEEAMLAVLHTVLLHRSTGKFHYKKEGTYSIGTVGTQDVDCDFIDFTYVRVSSEELDRALRKVVGEFKDALRNSGGDGLGQMSLEFYQKKKSRWPFSDECIPWEVWTVKVHVVALATEQERQICREKVGEKLCEKIINIVEVMNRHEYLPKMPTQSEVDNVFDTGLRDVQPYLYKISFQITDALGTSVTTTMRRLIKDTLAL

- Variants of: B1
- assayDetails: GST pull-down; n = 3; read off a plot
Listing of entries alongside the reported ratio to parent.
propertyName: ratio to parent

>  <mutant>
chain 2 E83L

>  <assayValue>
~0.88

$$$$
>  <mutant>
chain 3 W110D, chain 3 F112D

>  <assayValue>
~0.8

$$$$
>  <mutant>
chain 2 F19D

>  <assayValue>
~0.02

$$$$
>  <mutant>
chain 2 Y118D

>  <assayValue>
~0.03

$$$$
>  <mutant>
chain 2 W50D

>  <assayValue>
~0.02

$$$$
>  <mutant>
chain 2 F16D

>  <assayValue>
~0.1

$$$$
>  <mutant>
chain 2 Y115D

>  <assayValue>
~0.97

$$$$
>  <mutant>
chain 2 K15D

>  <assayValue>
~0.26

$$$$
>  <mutant>
chain 3 Y45D

>  <assayValue>
~0.02

$$$$
>  <mutant>
chain 2 K18D

>  <assayValue>
~0.11

$$$$
